B1: WEE1 (parent)
chain: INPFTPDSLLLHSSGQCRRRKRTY

Variants of: B1
Assay: protein stability index of a GFP-peptide fusion (GPS, HEK-293T) (PSI 1-6); higher = more stable;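 also: lentivirally expressed fusions sorted by FACS into six bins by GFP to DsRed ratio, PSI derived from sequencing read proportions per bin multiplied by bin number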
Conditions: c terminus: a fixed tail appended
recordedEndpoint: protein stability index
Numbers only.

For each entry beneath this line, provide reported protein stability index.
1. P3A
2. L9M
3. T23H
4. I1L

1: 3.21; 2: 3.35; 3: 3.7; 4: 3.19

Below is a list of variants. For each, state its recorded protein stability index.
1. S8C
2. R20H

2.73
3.62
